Target: CDK9 (Homo sapiens)
Construct: host or cells: HEK293-CDK9-Hibit
Sequence (P50750 whole entry): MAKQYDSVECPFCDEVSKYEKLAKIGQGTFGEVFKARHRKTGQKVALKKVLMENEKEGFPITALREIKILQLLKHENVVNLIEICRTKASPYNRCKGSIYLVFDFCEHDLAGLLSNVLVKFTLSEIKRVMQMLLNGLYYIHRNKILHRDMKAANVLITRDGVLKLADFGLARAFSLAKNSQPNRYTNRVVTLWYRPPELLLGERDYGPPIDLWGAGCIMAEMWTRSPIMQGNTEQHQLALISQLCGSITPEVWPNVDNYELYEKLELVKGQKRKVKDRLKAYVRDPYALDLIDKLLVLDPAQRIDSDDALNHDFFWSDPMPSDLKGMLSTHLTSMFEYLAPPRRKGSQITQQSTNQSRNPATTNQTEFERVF
Test: HiBit Assay Protocol for CDK9 (HIBIT protein quantification, degradation)
Type: cell-based
Conditions: 6 h, HEK293-CDK9-Hibit cells, compound treatment for 6 hours; read-out: CDK9 HIBIT Protein Quantification Maximum
outcomeMeasure: Dmax (%)

Answered examples (2):
- molecule: "CC1CCCC1N1C(=O)C2(CC2)c2cnc(NC3CCN(S(=O)(=O)N4CC5CN(C(=O)CCCc6ccc7c(c6)n(C)c(=O)n7C6CCC(=O)NC6=O)CC54)CC3)nc21 (stereo not shown)"
  numericValue: 15
- molecule: "CC1CCCC1N1C(=O)C2(CC2)c2cnc(NC3CCN(S(=O)(=O)N4CCC5(CCN(C(=O)CCCCc6ccc7c(c6)n(C)c(=O)n7C6CCC(=O)NC6=O)C5)C4)CC3)nc21 (stereo not shown)"
  numericValue: 28

P = CC1CCCC1N1C(=O)C2(CC2)c2cnc(NC3CCN(S(=O)(=O)N4CC5(CCCCN5CC5CCN(c6cccc7c6n(C)c(=O)n7C6CCC(=O)NC6=O)CC5)C4)CC3)nc21 (stereo not shown)
Q = CC1CCCC1N1C(=O)C2(CC2)c2cnc(Nc3ccc(S(=O)(=O)N(C)CCCN4CCC(c5cccc6c5n(C)c(=O)n6C5CCC(=O)NC5=O)CC4)cc3)nc21 (stereo not shown)
Task item: For the pair P and Q , which entry has the numerically smaller recorded Dmax? Please respond with the label that marks your chosen entry.
Reply: P

I = CC1CCCC1N1C(=O)C2(CC2)c2cnc(NC3CCN(S(=O)(=O)C4CCCN(C(=O)CCCCCCCc5ccc6c(c5)n(C)c(=O)n6C5CCC(=O)NC5=O)C4)CC3)nc21 (stereo not shown)
II = CC(c1cccc(S(=O)(=O)N2CC[C@H](Nc3ncc4c(n3)N([C@@H]3CCC[C@@H](O)C3)C(=O)C43CC3)[C@H](F)C2)c1)N1CCN(c2ccc3c(N4CCC(=O)NC4=O)nn(C)c3c2)C[C@H]1C (stereo partly shown)
Task item: Response body: label of entry with the larger Dmax; valid values I , II . Please respond with the label that marks your chosen entry.
Reply: II

1 = Cn1nc(N2CCC(=O)NC2=O)c2ccc(C3CCN(Cc4cc(S(=O)(=O)N5CCC(Nc6ncc7c(n6)N([C@@H]6CCC[C@@H](O)C6)C(=O)C76CC6)CC5)ccn4)CC3)cc21
2 = CC1CCCC1N1C(=O)C2(CC2)c2cnc(NC3CCN(S(=O)(=O)N4CC5(CN(C(=O)CCc6cccc7c6n(C)c(=O)n7C6CCC(=O)NC6=O)C5)C4)CC3)nc21 (stereo not shown)
Task item: For the pair 1 and 2 , which entry has the numerically smaller recorded Dmax? Please respond with the label that marks your chosen entry.
Reply: 2

* * *

Target: CCNE1 (Homo sapiens)
Construct: host or cells: HEK293-CCNE1-Hibit
Test: HiBit Assay Protocol for CCNE1 (HIBIT protein quantification, degradation)
Type: cell-based
Details: HEK293-CCNE1-Hibit cells, compound treatment for 6 hours
Protocol: HiBit Assay Protocol for CCNE1 • 1. The culture medium for HEK293-CCNE1-Hibit cell was prepared using EMEM with […]. • 2. Cells were cultivated in T-75 flasks in a cell culture incubator set at 37° C., 5% CO2, 95% relative humidity. […] Cells were harvested from flask into cell culture medium and then the cell number was counted. […] • 1. […] 20 μL of HiBit reagent was added into each well and the plates were spinned at room temperature at 1,000 RPM for 1 minute to be detected. […]
outcomeMeasure: CCNE1 HIBIT Protein Quantification Maximum (%)

Answered examples (3):
- compound: "Cn1nc(N2CCC(=O)NC2=O)c2ccc(C3CCN(Cc4cccc(S(=O)(=O)N5CC[C@H](Nc6ncc7c(n6)N([C@@H]6CCC[C@@H](O)C6)C(=O)C76CC6)[C@@H](F)C5)c4)CC3)cc21 [Compound 157]"
  numericValue: 14
- compound: "CC1CCCC1N1C(=O)C2(CC2)c2cnc(NC3CCN(S(=O)(=O)N4CC5C4CCN5C(=O)CCCc4cccc5c4n(C)c(=O)n5C4CCC(=O)NC4=O)CC3)nc21 (centres unmarked) [Compound 31]"
  numericValue: 14
- compound: "Cn1nc(N2CCC(=O)NC2=O)c2ccc(C3CCN(Cc4cccc(S(=O)(=O)N5CCC(Nc6ncc7c(n6)N(c6cc(F)ccc6Cl)C(=O)C76CC6)CC5)c4)CC3)cc21 [Compound 162]"
  numericValue: 42

I = C[C@H]1CCC[C@H]1N1C(=O)C2(CC2)c2cnc(NC3CCN(S(=O)(=O)N(C)CCCN4CCC(c5cccc6c5n(C)c(=O)n6C5CCC(=O)NC5=O)CC4)CC3)nc21 (some centres unmarked) [Compound 13]
II = CC1CCCC1N1C(=O)C2(CC2)c2cnc(NC3CCN(S(=O)(=O)N4CC5(CCN(C(=O)CCCCCCCCCc6ccc7c(c6)n(C)c(=O)n7C6CCC(=O)NC6=O)CC5)C4)CC3)nc21 (centres unmarked) [Compound 88]
Task item: For the pair I and II , which entry has the numerically smaller recorded CCNE1 HIBIT Protein Quantification Maximum? Please respond with the label that marks your chosen entry.
Reply: II
(II: 21%, I: 52.8%)

* * *

Target: CCNE1 (Homo sapiens, UniProt P24864)
Construct: host or cells: HEK293-CCNE1-Hibit
Sequence (P24864 whole entry): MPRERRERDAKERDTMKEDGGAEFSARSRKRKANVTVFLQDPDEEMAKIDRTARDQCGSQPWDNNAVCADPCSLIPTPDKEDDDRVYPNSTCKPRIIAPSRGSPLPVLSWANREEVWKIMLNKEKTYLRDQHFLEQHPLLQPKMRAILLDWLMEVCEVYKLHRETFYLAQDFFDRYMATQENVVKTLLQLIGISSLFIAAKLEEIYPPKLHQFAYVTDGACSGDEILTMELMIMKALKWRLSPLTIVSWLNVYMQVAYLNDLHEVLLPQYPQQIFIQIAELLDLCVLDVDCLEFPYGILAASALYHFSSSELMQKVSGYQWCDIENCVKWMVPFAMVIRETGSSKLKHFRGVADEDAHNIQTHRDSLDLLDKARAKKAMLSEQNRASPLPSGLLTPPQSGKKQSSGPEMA
Experiment: HiBit Assay Protocol for CCNE1 (HIBIT protein quantification, degradation)
Type: cell-based
Conditions: HEK293-CCNE1-Hibit cells, compound treatment for 6 hours
outcomeMeasure: CCNE1 HIBIT Protein Quantification Maximum (%)

- compound: "CC1CCCC1N1C(=O)C2(CC2)c2cnc(NC3CCN(S(=O)(=O)N4CCCN(C(=O)CCCCc5ccc6c(c5)n(C)c(=O)n6C5CCC(=O)NC5=O)CC4)CC3)nc21 (stereo not drawn)"
  unitName: "%"
  numericValue: 28

I = CC1CCCC1N1C(=O)C2(CC2)c2cnc(NC3CCN(S(=O)(=O)N4CCC5(CCCN5C(=O)CCCCc5cccc6c5n(C)c(=O)n6C5CCC(=O)NC5=O)C4)CC3)nc21 (stereo not drawn)
II = CC1CCCC1N1C(=O)C2(CC2)c2cnc(NC3CCN(S(=O)(=O)C4CCN(C(=O)CCCCc5cccc6c5n(C)c(=O)n6C5CCC(=O)NC5=O)C4)CC3)nc21 (stereo not drawn)
Task item: Response body: label of entry with the larger CCNE1 HIBIT Protein Quantification Maximum; valid values I , II . Please respond with the label that marks your chosen entry.
Reply: I

* * *

Molecular target: CDK9 (Homo sapiens)
Construct: host or cells: HEK293-CDK9-Hibit
Experiment: HiBit Assay Protocol for CDK9 (HIBIT protein quantification, degradation)
Assay type: cell-based
Conditions: 6 h, HEK293-CDK9-Hibit cells, compound treatment for 6 hours; read-out: CDK9 HIBIT Protein Quantification Maximum
outcomeMeasure: Dmax (%)

Answered examples (6):
- compound: "CC1CCCC1N1C(=O)C2(CC2)c2cnc(NC3CCN(S(=O)(=O)N4CCC5(CCCN5C(=O)CCCCCc5cccc6c5n(C)c(=O)n6C5CCC(=O)NC5=O)C4)CC3)nc21 (stereo not shown) [Compound 36]"
  unitName: "%"
  Dmax: 49
- compound: "CC1CCCC1N1C(=O)C2(CC2)c2cnc(NC3CCN(S(=O)(=O)N4CC5(CCN(C(=O)Cc6ccc7c(c6)n(C)c(=O)n7C6CCC(=O)NC6=O)CC5)C4)CC3)nc21 (stereo not shown) [Compound 54]"
  unitName: "%"
  Dmax: 4
- compound: "CC1CCCC1N1C(=O)C2(CC2)c2cnc(NC3CCN(S(=O)(=O)N4CC5(CN(CCCCOc6ccc7c(c6)n(C)c(=O)n7C6CCC(=O)NC6=O)C5)C4)CC3)nc21 (stereo not shown) [Compound 143]"
  unitName: "%"
  Dmax: -2
- compound: "C[C@H](c1cccc(S(=O)(=O)N2CC[C@H](Nc3ncc4c(n3)N([C@@H]3CCC[C@@H](O)C3)C(=O)C43CC3)[C@H](F)C2)c1)N1CCN(c2ccc3c(N4CCC(=O)NC4=O)nn(C)c3c2)CC1 [Compound 196]"
  unitName: "%"
  Dmax: 14
- compound: "CC(c1cc(S(=O)(=O)N2CC[C@H](Nc3ncc4c(n3)N([C@@H]3CCC[C@@H](O)C3)C(=O)C43CC3)[C@H](F)C2)ccc1F)N1CCC(c2ccc3c(N4CCC(=O)NC4=O)nn(C)c3c2)CC1 (single isomer, unassigned) [Compound 200]"
  unitName: "%"
  Dmax: 13
- compound: "CC1CCCC1N1C(=O)C2(CC2)c2cnc(NC3CCN(S(=O)(=O)N4CC(N(C)C(=O)CCCc5cccc6c5n(C)c(=O)n6C5CCC(=O)NC5=O)C4)CC3)nc21 (stereo not shown) [Compound 22]"
  unitName: "%"
  Dmax: 35

1 = Cn1nc(N2CCC(=O)NC2=O)c2cc(F)c(C3CCN(Cc4cccc(S(=O)(=O)N5CCC(Nc6ncc7c(n6)N([C@@H]6CCC[C@@H](O)C6)C(=O)C76CC6)CC5)c4)CC3)cc21 [Compound 176]
2 = Cn1nc(N2CCC(=O)NC2=O)c2ccc(C3CCN(Cc4cccc(S(=O)(=O)N5CC[C@@H](Nc6ncc7c(n6)N([C@@H]6CCC[C@@H](O)C6)C(=O)C76CC6)[C@H](F)C5)c4)CC3)cc21 [Compound 158]
3 = Cn1c(=O)n(C2CCC(=O)NC2=O)c2cccc(C3CCN(Cc4cccc(S(=O)(=O)N5CCC(Nc6ncc7c(n6)N([C@@H]6CCC[C@@H](O)C6)C(=O)C76CC6)CC5)c4)CC3)c21 (stereo partly shown) [Compound 148]
Task item: // sort entries: Dmax, high to low In plain terms: list the labels in the order you were asked to.
Reply: 1, 2, 3
